# assayedTarget: CYP1A2 (Homo sapiens)
# Sequence (P05177 1-516): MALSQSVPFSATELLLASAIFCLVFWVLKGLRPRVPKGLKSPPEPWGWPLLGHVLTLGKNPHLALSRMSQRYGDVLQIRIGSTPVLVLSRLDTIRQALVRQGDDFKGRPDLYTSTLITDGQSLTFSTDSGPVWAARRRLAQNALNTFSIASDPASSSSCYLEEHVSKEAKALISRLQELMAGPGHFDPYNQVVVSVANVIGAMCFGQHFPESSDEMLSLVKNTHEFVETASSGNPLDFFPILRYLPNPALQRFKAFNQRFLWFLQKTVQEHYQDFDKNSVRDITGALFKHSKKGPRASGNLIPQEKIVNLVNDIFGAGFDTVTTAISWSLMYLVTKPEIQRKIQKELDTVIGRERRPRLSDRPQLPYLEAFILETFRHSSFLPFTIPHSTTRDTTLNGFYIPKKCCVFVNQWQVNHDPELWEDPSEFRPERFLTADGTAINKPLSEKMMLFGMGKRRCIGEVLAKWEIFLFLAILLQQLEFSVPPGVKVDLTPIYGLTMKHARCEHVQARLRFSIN
quantityName: IC50

Write down IC50 measured for item C[C@@]1(c2cc(Nc3ncccc3N)ccc2F)CCSC(N)=N1
> 21 µM
